Ref: ChEMBL document CHEMBL1201862

Tested on: NCI-H522
Assay Notes: NCI tumour cell line growth inhibition, 48 h
Calls of active or inactive are those of the source. No stated cut-off is given here; in the data, active = GI50 up to about 1.1 µM and inactive = higher.
Parameter: GI50

[
  {
    "Compound": "COc1cc2c(c(OC)c1OC)C(=O)[C@@H](O)[C@H]2NC(N)=O",
    "Test Target": "NCI-H522",
    "Reading": "> 100 µM (inactive)"
  }
]

Problem: Sample `CCCCc1c(N(C)C)c(OC(C)=O)c(-c2cn(C)c3ccccc23)oc1=O` — what was its GI50?
Result: 20.9 µM (inactive)

Problem: GET /values?readout=GI50&item= `O=C(/C=C/c1ccccc1)/C=C/c1ccccc1O`
Result: 15.5 µM (inactive)
